- protocol-text: chemical genetic growth profiling, strain panel (AID 1159580);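 also: tested at 20 µM; growth read once vehicle control cultures reached saturation at 30 °C; 1 = growth at the plate median or of vehicle wells; lower values mean less growth of the strain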
- applied-conditions: S. cerevisiae deletion strains, growth OD, locus YLR268W, strain sec22
Screen size: about 5,500 compounds; about 2,000 (36%) were called active. Not shown: some 18% with an inconclusive outcome. Rule as the data show it: active = normalized growth mostly below about 0.91 (no sharp cut-off); inconclusive = no clear call, values can overlap the other calls; inactive = mostly above about 0.92. The list shows a part of the results.
Select the correct class. Options are Yes (active), No (inactive) and nothing else.

Exercise: How did this test come out for CC(C)(Oc1ccc(CCNC(=O)c2ccc(Cl)cc2)cc1)C(=O)O ?
Key: No

Exercise: Tell me the assay call for NNC(=O)c1ccncc1 please.
Key: No

Exercise: Please state the recorded outcome for this compound: COc1ccc2c3c([nH]c2c1)C(C)=NCC3
Key: No

Exercise: Which outcome did this test record for the compound NNc1nncc2ccccc12 ?
Key: No

Exercise: How was CCOC(=O)OC(C)OC(=O)C1N2C(=O)C(NC(=O)[C@H](N)c3ccccc3)C2SC1(C)C (some centres not stated) classified in this test?
Key: No

New cases:
Exercise: Test call, this compound: C[C@@H]1CC[C@H]2[C@@H](C)C(=O)O[C@@H]3O[C@@]4(C)CC[C@@H]1[C@]32OO4
Key: Yes

Exercise: # fetch the recorded call for Nc1c2c(nc3ccccc13)CCCC2 here
Key: No

###

- protocol-text: chemical genetic growth profiling, strain panel (AID 1159580)
- applied-conditions: S. cerevisiae deletion strains, growth OD, locus YER110C, active compounds read low
About 2,000 (36%) of roughly 5,500 compounds were called active. Inconclusive results (about 18%) are left out. Some of the results follow.
quantity: normalized growth
Answer as a number with no unit attached.

Consider the worked cases shown below.
Summary for this compound, CCC(C)C(=O)O[C@H]1[C@H](O)C2C(CN3CC(C)CCC3[C@@]2(C)O)C2C[C@]34O[C@]5(O)C(OC(=O)C(C)(O)CC)CC[C@@]3(C)C5C(OC(C)=O)[C@@H](OC(C)=O)C4[C@@]21O (stereo partly drawn) : normalized growth is 0.982

Recorded normalized growth (compound CNCc1ccccc1 ): 0.99

// field: normalized growth; key: OC(CCN1CCCC1)(c1ccccc1)C1CCCCC1 (stereo not drawn) ; value = 0.975

New cases:
Measured normalized growth of CC1(C)CC[C@]2(C(=O)O)CC[C@]3(C)C(=CCC4[C@@]5(C)CC[C@@H](O)C(C)(C)C5CC[C@]43C)C2C1 (stereo partly drawn) : 1.02

GET /value?item= CC1=CCC2C3(C)C1=CC(=O)OC3CC1C(C)(C)CC(O)C(O)C12C (stereo not drawn) &field=normalized growth returns 0.991

Lab note: measured normalized growth of C[C@]12CCC(=O)C=C1CCC1C2[C@@H](O)C[C@@]2(C)C1CC[C@]2(O)C(=O)CO (stereo partly drawn) was 0.989

Value of measured normalized growth for the entry N#CC(O[C@@H]1O[C@H](CO[C@@H]2O[C@H](CO)[C@@H](O)[C@H](O)[C@H]2O)[C@@H](O)[C@H](O)[C@H]1O)c1ccccc1 (stereo partly drawn) : 0.996

Notebook: CCOC(=O)OC(C)OC(=O)C1N2C(=O)C(NC(=O)[C@H](N)c3ccccc3)C2SC1(C)C (stereo partly drawn) , normalized growth read as 0.982

###

- protocol-text: chemical genetic growth profiling, strain panel (AID 1159580);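 also: tested at 20 µM; growth read once vehicle control cultures reached saturation at 30 °C; 1 = growth at the plate median or of vehicle wells; lower values mean less growth of the strain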
- applied-conditions: S. cerevisiae deletion strains, growth OD, locus YDL028C, strain MPS1, active compounds read low
Out of some 5,500 compounds screened, about 2,000 (36%) were called active. Another 18% or so got no clear call; they are omitted. The list shows a part of the results.
quantity: normalized growth
Quick one: just the number, no unit, thanks!

Lab book: normalized growth of COc1cccc(NC(=S)NC2CC(C)CC(C)(C)C2)c1 (configuration not stated) noted as 0.99

Value of measured normalized growth for the entry O=C(CSCc1csc2ccccc12)Nc1ccc(F)c(Cl)c1 : 0.982

***
Input Cc1csc(NC(=O)Nc2ccc(C(F)(F)F)cc2)c1 . Output normalized growth: 0.981

Given item Cc1oc(C(C)(C)C)cc1-c1cc(N)n(-c2ccc(I)cc2)n1 , the value recorded as its normalized growth is 0.976

Reported normalized growth for O=C(c1cccs1)N(Cc1cccnc1)Cc1ccc(Cl)cc1Cl was 0.961

###

# normalized growth per record follows
- protocol-text: chemical genetic growth profiling, strain panel (AID 1159580);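 also: tested at 20 µM; growth read once vehicle control cultures reached saturation at 30 °C; 1 = growth at the plate median or of vehicle wells; lower values mean less growth of the strain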
- applied-conditions: S. cerevisiae deletion strains, growth OD, locus YNL067W, strain RPL9B, active compounds read low
Out of some 5,500 compounds screened, about 2,000 (36%) were called active. About 18% were inconclusive and are not listed. The list shows a part of the results. Where a SMILES comes first, the peptide text is derived from it. The star is where a group is joined. For = O=C*
Please respond with just the number, no unit label.

normalized growth reading for Nc1ccc(S(=O)(=O)c2ccc(N)cc2)cc1 : 1.02

Quick note, normalized growth for O=c1cc(CO)occ1O landed at 1.03

For this compound ( C#C[C@]1(O)CCC2C3CCC4=CC(=O)CC[C@@H]4C3CC[C@@]21C (stereo not given in full) ), measured normalized growth is 0.969

C[C@@H]1OC(O[C@H]2[C@H](OC(=O)[C@]34CCC(C)(C)CC3C3=CCC5[C@@]6(C)CC[C@H](OC7O[C@@H](C)[C@H](O[C@@H]8OC[C@@H](O)[C@H](O)[C@H]8O)[C@@H](O)[C@H]7O)C(C)(C)C6CC[C@@]5(C)[C@]3(C)CC4O)OC[C@H](O)[C@H]2O)[C@H](O)[C@H](O)[C@H]1O[C@@H]1O[C@H](CO)[C@@H](O)[C@H](O)[C@H]1O (stereo not given in full) has a reported normalized growth of 0.983

Sample C=C/C(C)=C\CC1C(C)(O)CCC2C(C)(C)CCCC21C (stereo not given) ; normalized growth observed: 0.421

get_value(item= C[C@@H]1CC[C@]2(C(=O)O)CC[C@]3(C)C(=CCC4[C@@]5(C)CC[C@H](O)C(C)(C)C5CC[C@]43C)C2[C@H]1C (stereo not given in full) , readout=normalized growth) returns 1.06

Input Cc1ccc(-c2cc(C(F)(F)F)nn2-c2ccc(S(N)(=O)=O)cc2)cc1 . Output normalized growth: 1.02

// recorded normalized growth for C[C@H]1[C@H](C)CC[C@]2(CO)CC[C@]3(C)C(=CCC4[C@@]5(C)CC[C@H](O)C(C)(C)C5CC[C@]43C)[C@H]12 (stereo not given in full) : 1.01

Just so you know, measured normalized growth for CC1(C)CC[C@]2(C)CC[C@]3(C)C(=CCC4[C@@]5(C)CC[C@H](O)C(C)(C)C5CC[C@]43C)C2C1 (stereo not given in full) came out at 0.973

Per the records, this compound ( COC(=O)/C(C)=C\CC12OC(C)(C)C3CC(C=C4C(=O)c5c(O)c6c(c(CCC(C)(C)Cl)c5OC431)OC1(C)CCC(=C(C)C)C6C1)C2=O (stereo not given) ) has normalized growth equal to 1.02

Note to self: normalized growth recorded for CC(C)=CCCC1(C)C=Cc2c(O)c3c(c(CC=C(C)C)c2O1)OC12C(=CCCC1C(C)(C)O[C@@]2(C/C=C(\C)C(=O)O)C(=O)O)C3=O (stereo not given in full) was 0.917

Query CC(C)=CCCC1(C)C=Cc2c(O)c3c(c(CC=C(C)C)c2O1)OC12C(=CC4CC1C(C)(C)OC2(C/C=C(\C)C(N)=O)C4=O)C3=O (stereo not given) yields normalized growth of 0.951

The recorded normalized growth for entry C#C[C@]1(O)CCC2C3CCC4=C(CCC(=O)C4)C3CC[C@@]21C (stereo not given in full) equals 1.02

response.value for CSCCC(NC=O)C(=O)NC(Cc1ccccc1)C(=O)O (stereo not drawn) (For-Met-Phe-OH; configuration not given here) (field: normalized growth) = 1.02

The compound identified as CC(=O)Nc1ccc(OCC(O)CNC(C)C)cc1 (stereo not given) registered its normalized growth at 1.02

###

A collection of compounds and their measured normalized growth
- protocol-text: chemical genetic growth profiling, strain panel (AID 1159580);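 also: tested at 20 µM; growth read once vehicle control cultures reached saturation at 30 °C; 1 = growth at the plate median or of vehicle wells; lower values mean less growth of the strain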
- applied-conditions: S. cerevisiae deletion strains, growth OD, locus YDR150W, strain NUM1, active compounds read low
Screen size: about 5,500 compounds; about 2,000 (36%) were called active. Roughly 18% stayed inconclusive and do not appear here. The list shows a part of the results.
Lab note: jot the number down without any unit.

Please review the following examples before continuing.
# compound O=C1ON=C(CSc2ccccc2)/C1=C/c1ccc(Cl)cc1 ; its normalized growth = 0.0599

Field normalized growth (entry Cc1nn(C)c(C)c1NS(=O)(=O)c1cc(Cl)sc1Cl ) reads 0.956

Lab note: CC(C)=CCCC1(C)C=Cc2c(O)c3c(c(CC=C(C)C)c2O1)OC12C(=CC4CC1C(C)(C)OC2(C/C=C(/C)C(=O)O)C4=O)C3=O (stereo unspecified) gave normalized growth of 0.932

Others:
For reference, reported normalized growth for Fc1ccc(C(c2ccccc2)(c2ccccc2F)n2ccnc2)cc1 (stereo unspecified) stands at 0.0798

normalized growth reading for Nc1ccccc1C(=O)CC(N)C(=O)O (stereo unspecified) : 0.997
